As shown below, each of these molecules has a reported pIC50 value.
# measured-target: NS3 protease (dengue virus type 4)
# assay-overview: Functional biochemical assay to identify treatments for viral infectious disease that targets Dengue virus type 4 NS2B-NS3 protease. Utilizing a direct enzyme activity measurement method, reading the fluorescence intensity is used to characterize the relative potency of inhibitors as IC50.
On this scale, pIC50 is minus log10 of a concentration expressed in M (mol/L).

{"columns": ["test-smiles", "pIC50"],
 "data": [
  ["O=C(Nc1ccc2c(c1)CNC2)c1ccc2[nH]cc(C3CCNCC3)c2c1", 4.43]
]}

Fill blank: measured pIC50 of the molecule Clc1cc([C@@H]2C[C@H]2c2cccc(C3CCNCC3)c2)c2cn[nH]c2c1 is ____.
5.23

Moving on to the next molecule: O=C(Nc1cc(Cl)cc(C(=O)Nc2ccc3c(c2)CNC3)c1)OCc1ccccc1
4.04

Item: O=C1Cc2c(cc(Br)cc2C(=O)Nc2ccc3c(c2)CNC3)N1
4.06

====

# measured-target: NS3 protease (dengue virus type 4, UniProt A0A0K0TQ36)
# Sequence (A0A0K0TQ36 whole entry): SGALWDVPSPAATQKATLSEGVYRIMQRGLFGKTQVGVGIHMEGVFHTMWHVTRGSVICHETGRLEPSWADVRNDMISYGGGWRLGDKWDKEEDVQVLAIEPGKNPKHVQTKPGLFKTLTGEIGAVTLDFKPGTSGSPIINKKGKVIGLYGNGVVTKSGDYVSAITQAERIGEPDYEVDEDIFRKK
# assay-overview: Functional biochemical assay to identify treatments for viral infectious disease that targets Dengue virus type 4 NS2B-NS3 protease. Utilizing a direct enzyme activity measurement method, reading the fluorescence intensity is used to characterize the relative potency of inhibitors as IC50.
reported-metric: pIC50
Hey, just a heads up that pIC50 is the negative log base 10 of the concentration in molar.

// below: answered compounds
{"columns": ["test-smiles", "measured-target", "pIC50"],
 "data": [
  ["CC(C)CNC(=O)c1cc(Cl)ccc1NS(=O)(=O)c1ccc(Oc2ccccc2Cl)cc1", "NS3 protease (dengue virus type 4, UniProt A0A0K0TQ36)", 4.82],
  ["O=C(Nc1cc(Cl)cc(-c2ccc3[nH]c(C(=O)O)cc3c2)c1)OCc1ccccc1", "NS3 protease (dengue virus type 4, UniProt A0A0K0TQ36)", 5.16],
  ["COc1cccc(-c2nc3c(C(=O)Nc4ccc5c(c4)CNC5)cc(F)cc3[nH]2)c1", "NS3 protease (dengue virus type 4, UniProt A0A0K0TQ36)", 5.27],
  ["O=C(Nc1cc(Cl)cc([C@H]2C[C@@H]2c2cccc(C3CCNCC3)c2)c1)OCc1ccccc1", "NS3 protease (dengue virus type 4, UniProt A0A0K0TQ36)", 5.26],
  ["OCC#C[C@H](Nc1ccc2c(c1)CNC2)c1cc(Cl)cc2[nH]ncc12", "NS3 protease (dengue virus type 4, UniProt A0A0K0TQ36)", 4.65]
]}

I would be grateful if you could share the reported pIC50 for Cc1ccc(NC(=O)c2cc(Cl)cc(NC(=O)OCc3ccccc3)c2)cc1CN .
4.15

Then what about the compound CC(C)(c1nc2c(C(=O)Nc3ccc4c(c3)CNC4)cc(F)cc2[nH]1)S(C)(=O)=O ?
4.74

Now consider O=C(Nc1ccc2c(c1)CNC2)c1cc(Cl)cc(C(F)(F)F)n1 and answer again.
4.64

Also check N#Cc1ccc(-c2nc3c(C(=O)Nc4ccc5c(c4)CNC5)cc(F)cc3[nH]2)cc1
5.72

====

# measured-target: NS3 protease (dengue virus type 4)
# assay-overview: Functional biochemical assay to identify treatments for viral infectious disease that targets Dengue virus type 4 NS2B-NS3 protease. Utilizing a direct enzyme activity measurement method, reading the fluorescence intensity is used to characterize the relative potency of inhibitors as IC50.
compounds and their reported pIC50
Quick note: pIC50 means taking -log10 of the concentration in moles per liter.

Examples with their reported pIC50 follow.
{"columns": ["test-smiles", "reported-metric", "recorded-number"],
 "data": [
  ["Cc1ccccc1-c1nc2c(C(=O)Nc3ccc4c(c3)CNC4)cc(F)cc2[nH]1", "pIC50", 5.49],
  ["NCc1ccc(-c2csc3cc(C(=O)Nc4ccc5c(c4)CNC5)ccc23)cc1", "pIC50", 4.27]
]}

# lookup: pIC50 of N#Cc1cc2c(cc1NC(=O)c1cc(F)cc3[nH]ncc13)CNC2
4.43

Another compound to look at: O=C(Nc1ccc2c(c1)CNC2)c1cc(Br)cc2[nH]c(-c3ccccc3)nc12
5.53

Note, next up: N[C@H]1CC[C@H](c2ccc(NC(=O)c3cc(Cl)cc(NC(=O)OCc4ccccc4)c3)cc2)C1
5.12

Also need O=C(Nc1cc(Cl)cc([C@H](C#CCO)Nc2cccc(-c3nn[nH]n3)c2)c1)OCc1ccccc1 , thanks.
4.80

====

# measured-target: NS3 protease (dengue virus type 4)
# assay-overview: Functional biochemical assay to identify treatments for viral infectious disease that targets Dengue virus type 4 NS2B-NS3 protease. Utilizing a direct enzyme activity measurement method, reading the fluorescence intensity is used to characterize the relative potency of inhibitors as IC50.
reported-metric: IC50

Use the examples below as a reference point.
{"columns": ["test-smiles", "IC50"],
 "data": [
  ["O=C(Nc1ccc2c(c1)CNC2)c1cc(Cl)cc2nn(-c3ccccc3)nc12", "5.25 µM"],
  ["O=C(Nc1ccc2c(c1)CNC2)c1cc(Cl)cc2cc[nH]c12", "> 99.5 µM"],
  ["O=C(Nc1ccc2c(c1)CNC2)c1cccc2cn[nH]c12", "45 µM"],
  ["Cn1cc(CCc2nc3c(C(=O)Nc4ccc5c(c4)CNC5)cc(Cl)cc3[nH]2)cn1", "26.4 µM"]
]}

Next, consider the following compound.
Any idea what IC50 came out for O=C(Nc1ccc2c(c1)CNC2)c1cccc2nc(O)ccc12 on NS3 protease (dengue virus type 4)?
> 99.5 µM

====

# measured-target: NS3 protease (dengue virus type 4, UniProt A0A0K0TQ36)
# Sequence (A0A0K0TQ36 whole entry): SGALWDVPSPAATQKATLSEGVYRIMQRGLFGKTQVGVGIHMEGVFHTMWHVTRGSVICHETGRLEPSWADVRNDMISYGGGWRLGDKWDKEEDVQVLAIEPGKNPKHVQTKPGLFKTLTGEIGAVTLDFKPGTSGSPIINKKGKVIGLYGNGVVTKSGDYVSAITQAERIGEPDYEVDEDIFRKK
# assay-overview: Functional biochemical assay to identify treatments for viral infectious disease that targets Dengue virus type 4 NS2B-NS3 protease. Utilizing a direct enzyme activity measurement method, reading the fluorescence intensity is used to characterize the relative potency of inhibitors as IC50.
# Design: species or system Philippines/H241/1956
reported-metric: log10(IC50) (log10 of the value in µM)
// units: µM (pre-log); metric: IC50; scale: log10

Solved cases below.
{"columns": ["test-smiles", "recorded-number"],
 "data": [
  ["CCc1cc(C(=O)Nc2cccc(-n3nn[nH]c3=O)c2)sc1-c1ccc(Cl)cc1", 1.12],
  ["CNC(=O)[C@H](Nc1cc(Cl)cc(NC(=O)OCc2ccccc2)c1)c1cccc(-c2nn[nH]n2)c1", 1.79],
  ["N#Cc1cccc(-c2nc3c(C(=O)Nc4ccc5c(c4)CNC5)cc(F)cc3[nH]2)c1", 0.46],
  ["O=C(Nc1cc(Cl)cc(C(=O)Nc2cccc([C@H]3C[C@H]3C(=O)O)c2)c1)OCc1ccccc1", 1.52]
]}

Now, please, on to the next compound.
Give log10(IC50) (NS3 protease (dengue virus type 4, UniProt A0A0K0TQ36)) of the following compound: O=C(Nc1cc2c(c(C3=CCOCC3)c1)CNC2)c1cc(F)cc2[nH]ncc12
1.48

====

# measured-target: NS3 protease (dengue virus type 4)
# assay-overview: Functional biochemical assay to identify treatments for viral infectious disease that targets Dengue virus type 4 NS2B-NS3 protease. Utilizing a direct enzyme activity measurement method, reading the fluorescence intensity is used to characterize the relative potency of inhibitors as IC50.
pIC50: −log10 of the molar value.
reported-metric: pIC50

{"columns": ["test-smiles", "measured-target", "pIC50"],
 "data": [
  ["N#C[C@H](Nc1ccc2c(c1)CNC2)c1cc(Cl)cc2[nH]ncc12", "NS3 protease (dengue virus type 4)", "< 4.00"],
  ["CC(C)c1cc(Br)cc(C(=O)Nc2ccc3c(c2)CNC3)c1", "NS3 protease (dengue virus type 4)", "< 4.00"],
  ["O=C(Nc1ccc2c(c1)CNC2)c1cc(F)cc2[nH]ncc12", "NS3 protease (dengue virus type 4)", "< 4.00"],
  ["O=C(NC1CCOCC1)[C@H](Nc1ccc2c(c1)CNC2)c1cc(Cl)cc(C2CC2)c1", "NS3 protease (dengue virus type 4)", "< 4.00"],
  ["O=C(Nc1cc(Br)c2c(c1)CNC2)c1cc(F)cc2[nH]ncc12", "NS3 protease (dengue virus type 4)", "< 4.00"],
  ["O=C(Nc1ccc2c(c1)CNC2)c1cccc2c(C3CNC3)n[nH]c12", "NS3 protease (dengue virus type 4)", 4.49],
  ["COCCNC(=O)[C@H](Nc1ccc2c(c1)CNC2)c1cc(Cl)cc(C2CC2)c1", "NS3 protease (dengue virus type 4)", "< 4.00"],
  ["O=C(Nc1ccc2c(c1)CNC2)c1cc(F)cc2[nH]c(-c3ccc(F)cc3)nc12", "NS3 protease (dengue virus type 4)", 5.44],
  ["Cc1c(C(=O)Nc2cc([C@H]3CCOC3)ccn2)cc(C2CC2)n1C", "NS3 protease (dengue virus type 4)", "< 4.00"],
  ["NCc1csc2cc(C(=O)Nc3ccc4c(c3)CNC4)ccc12", "NS3 protease (dengue virus type 4)", 4.93]
]}

Notebook entry, NS3 protease (dengue virus type 4) assay: pIC50 of NCCc1csc2cc(C(=O)Nc3ccc4c(c3)CNC4)ccc12 = ?
< 4.00

Likewise for Clc1ccc2[nH]cc(Cc3ccc(-c4nn[nH]n4)cc3)c2c1 ?
4.00

Try the compound C=CC[C@H]1NCc2cc(NC(=O)c3cc(Cl)cc4[nH]ncc34)ccc21
< 4.00

Proceed to O=C(Nc1ccc2c(c1)CNC2)c1cc(F)cc2c1CCC2
< 4.00

Follow-up item: O=C(Nc1cc(Cl)cc(C(=O)Nc2ccc3c(c2)CCNC3)c1)OCc1ccccc1
4.49

The origin of these recorded values is ChEMBL document CHEMBL5604066.
